- System Name: human TLR8 (Homo sapiens, UniProt Q9NR97)
- Sequence (Q9NR97 27-1041): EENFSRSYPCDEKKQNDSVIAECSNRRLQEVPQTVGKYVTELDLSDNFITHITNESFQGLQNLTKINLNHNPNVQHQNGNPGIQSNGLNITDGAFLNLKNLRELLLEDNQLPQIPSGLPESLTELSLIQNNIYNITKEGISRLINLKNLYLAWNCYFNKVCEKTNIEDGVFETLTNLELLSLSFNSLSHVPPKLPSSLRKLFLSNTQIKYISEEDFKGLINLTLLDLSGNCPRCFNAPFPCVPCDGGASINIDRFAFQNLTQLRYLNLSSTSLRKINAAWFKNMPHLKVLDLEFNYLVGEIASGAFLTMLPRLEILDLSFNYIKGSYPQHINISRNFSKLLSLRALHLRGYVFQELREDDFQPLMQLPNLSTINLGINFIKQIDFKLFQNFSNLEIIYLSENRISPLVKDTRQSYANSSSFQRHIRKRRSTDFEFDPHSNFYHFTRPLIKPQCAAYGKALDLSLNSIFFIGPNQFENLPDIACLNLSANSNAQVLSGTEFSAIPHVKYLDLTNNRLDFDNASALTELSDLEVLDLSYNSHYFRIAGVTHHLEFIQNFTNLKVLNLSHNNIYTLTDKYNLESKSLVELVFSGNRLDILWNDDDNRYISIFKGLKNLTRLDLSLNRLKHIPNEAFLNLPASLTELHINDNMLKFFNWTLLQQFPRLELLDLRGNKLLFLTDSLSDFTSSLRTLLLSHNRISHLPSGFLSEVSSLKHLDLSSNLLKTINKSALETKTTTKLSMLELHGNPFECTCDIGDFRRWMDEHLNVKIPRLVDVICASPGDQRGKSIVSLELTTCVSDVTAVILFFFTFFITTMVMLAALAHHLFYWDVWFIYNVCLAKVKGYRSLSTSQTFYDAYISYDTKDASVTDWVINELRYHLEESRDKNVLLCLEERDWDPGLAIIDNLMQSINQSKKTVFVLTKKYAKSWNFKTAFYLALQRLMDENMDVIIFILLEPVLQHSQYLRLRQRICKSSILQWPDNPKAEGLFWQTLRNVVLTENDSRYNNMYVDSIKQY
- Protocol: TLR8 inhibition reporter assay (HEK-Blue cells, SEAP reporter, R848 stimulation)
- Condition Summary: HEK-Blue cells overexpressing human TLR8, SEAP reporter, R848 15.9 μM
- From the text: TLR7/8/9 Inhibition Reporter Assays HEK-Blue™-cells (Invivogen) overexpressing human TLR7, TLR8 or TLR9 receptors were used for screening inhibitors of these receptors using an inducible SEAP (secreted embryonic alkaline phosphatase) reporter gene under the control of the IFN-β minimal promoter fused to five NF-κB and AP-1-binding sites. […]
pIC50: −log10 of the molar value.
Property Measured: pIC50

As a guide, the following entries are already answered.
| Molecule | Value Measured |
| --- | --- |
| CNC(=O)CN1CCC(c2ccc3[nH]c(-c4ccc(C)n5ncnc45)c(C(C)C)c3c2)CC1 [Example 386] | 6.00 to 7.00 |
| Cc1cc(-c2[nH]c3ccc(C4CCN(CC(=O)N(C)C)CC4)cc3c2C(C)C)cc2nccnc12 [Example 395] | > 7.00 |
| Fc1cc(-c2[nH]c3ccc(C4CCNCC4)cc3c2CC(F)F)cn2ccnc12 [Example 131] | 6.00 to 7.00 |
| Cc1c(-c2ncc3[nH]ccc3n2)[nH]c2ccc(C3CCN(C4CCN(C(C)C)CC4)CC3)cc12 [Example 808] | 4.30 to 6.00 |

What the record says about CC(C)c1c(-c2ccnc3[nH]ncc23)[nH]c2ccc(C3CCN(C(=O)CN4CC[C@@H](O)C4)CC3)cc12 [Example 579] : pIC50 is > 7.00

What the record says about Cc1c(-c2[nH]c3ccc(C4CCN(CC(=O)N(C)C)CC4)cc3c2C(C)C)c2cccnc2n1C [Example 286] : pIC50 is > 7.00

What the record says about CC(C)c1c(-c2ccn3cnnc3c2)[nH]c2ccc(C3CCN(C4COC4)CC3)cc12 [Example 736] : pIC50 is 6.00 to 7.00

What the record says about CCOC(=O)N1CCC(N2CCC(c3ccc4[nH]c(-c5ccnc6[nH]ncc56)c(C(C)C)c4c3)CC2)C(C)C1 (stereo not shown) [Example 835] : pIC50 is 6.00 to 7.00

What the record says about CC(C)c1c(-c2cc(Cl)c3ncccc3c2)[nH]c2ccc(C3CCNCC3)cc12 [Example 139] : pIC50 is > 7.00

What the record says about Cc1ccc(-c2[nH]c3ccc(C4CCN(C(=O)C[C@H](C)O)CC4)cc3c2C(C)C)c2ncnn12 [Example 599] : pIC50 is 6.00 to 7.00

What the record says about CC(C)c1c(-c2ccnc3[nH]ncc23)[nH]c2ccc(C3CCNC(=O)C3)cc12 (stereo not shown) [Example 248] : pIC50 is > 7.00

What the record says about CNCCN1CCC(c2ccc3[nH]c(-c4ccc5[nH]ccc5c4)c(C)c3c2)CC1 [Example 667] : pIC50 is 4.30 to 6.00

What the record says about Cc1ccnc2c1c(-c1[nH]c3ccc(C4CCN(C(=O)CN(C)C)CC4)cc3c1C(C)C)cn2C [Example 457] : pIC50 is > 7.00

* * *

- System Name: human TLR9 (Homo sapiens)
- Sequence (Q9NR96 26-1032): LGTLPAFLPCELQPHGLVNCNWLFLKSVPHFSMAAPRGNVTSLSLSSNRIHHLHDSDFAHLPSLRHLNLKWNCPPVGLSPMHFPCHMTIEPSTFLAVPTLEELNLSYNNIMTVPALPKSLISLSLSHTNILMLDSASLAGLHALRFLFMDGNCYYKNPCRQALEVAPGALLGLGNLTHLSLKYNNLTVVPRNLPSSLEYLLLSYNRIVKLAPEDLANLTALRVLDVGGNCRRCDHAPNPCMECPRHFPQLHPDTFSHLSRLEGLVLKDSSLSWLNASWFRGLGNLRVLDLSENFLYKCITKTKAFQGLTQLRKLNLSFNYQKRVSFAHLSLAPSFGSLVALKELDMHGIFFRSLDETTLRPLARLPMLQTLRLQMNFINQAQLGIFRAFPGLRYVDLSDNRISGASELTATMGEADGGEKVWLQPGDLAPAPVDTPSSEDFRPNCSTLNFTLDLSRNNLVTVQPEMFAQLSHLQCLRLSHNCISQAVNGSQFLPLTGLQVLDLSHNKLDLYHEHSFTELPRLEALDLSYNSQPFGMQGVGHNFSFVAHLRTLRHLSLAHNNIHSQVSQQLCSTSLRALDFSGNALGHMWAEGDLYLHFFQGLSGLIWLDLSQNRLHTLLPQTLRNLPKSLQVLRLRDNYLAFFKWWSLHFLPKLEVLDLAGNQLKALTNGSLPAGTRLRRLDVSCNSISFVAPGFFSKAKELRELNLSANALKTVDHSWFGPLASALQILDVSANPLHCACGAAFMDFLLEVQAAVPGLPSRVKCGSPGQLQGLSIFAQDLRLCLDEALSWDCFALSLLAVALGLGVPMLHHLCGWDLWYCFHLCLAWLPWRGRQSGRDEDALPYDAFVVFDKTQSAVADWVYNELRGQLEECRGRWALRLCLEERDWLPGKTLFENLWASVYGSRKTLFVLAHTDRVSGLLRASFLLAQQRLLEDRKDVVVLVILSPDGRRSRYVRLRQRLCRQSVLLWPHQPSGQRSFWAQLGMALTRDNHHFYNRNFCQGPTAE
- Protocol: TLR9 inhibition reporter assay (HEK-Blue cells, SEAP reporter, ODN2006 stimulation)
- Condition Summary: HEK-Blue cells overexpressing human TLR9, SEAP reporter, ODN2006 5 nM
Measured IC50 by item

| Compound | Value Measured |
| --- | --- |
| CCc1c(-c2ccnc3[nH]ccc23)[nH]c2ccc(C3CCN(C4CC(C)(C)NC(C)(C)C4)CC3)cc12 | 100 to 1000 nM |
| CC(CN(C)C)CN1CCC(c2ccc3[nH]c(-c4ccnc5[nH]ncc45)c(C(C)C)c3c2)CC1 (centres unmarked) | 100 to 1000 nM |
| Cc1cc2nnnn2cc1-c1[nH]c2ccc(C3CCN(C4COC4)CC3)cc2c1C(C)C | 1000 to 50000 nM |

What the record says about CC(C)c1c(-c2cc(Cl)c3ncccc3c2)[nH]c2ccc(C3CCN(CC(=O)N(C)C)CC3)cc12 : IC50 is 1000 to 50000 nM

What the record says about Cc1cc(-c2[nH]c3ccc(C4CCN(CCC(F)(F)F)CC4)cc3c2C(C)C)cn2nnnc12 : IC50 is > 50000 nM

* * *

Measured pIC50 by item
- System Name: human TLR7 (Homo sapiens, UniProt Q9NYK1)
- Construct: host or cells: HEK-Blue cells (HEK293-derived reporter line)
- Sequence (Q9NYK1 27-1049): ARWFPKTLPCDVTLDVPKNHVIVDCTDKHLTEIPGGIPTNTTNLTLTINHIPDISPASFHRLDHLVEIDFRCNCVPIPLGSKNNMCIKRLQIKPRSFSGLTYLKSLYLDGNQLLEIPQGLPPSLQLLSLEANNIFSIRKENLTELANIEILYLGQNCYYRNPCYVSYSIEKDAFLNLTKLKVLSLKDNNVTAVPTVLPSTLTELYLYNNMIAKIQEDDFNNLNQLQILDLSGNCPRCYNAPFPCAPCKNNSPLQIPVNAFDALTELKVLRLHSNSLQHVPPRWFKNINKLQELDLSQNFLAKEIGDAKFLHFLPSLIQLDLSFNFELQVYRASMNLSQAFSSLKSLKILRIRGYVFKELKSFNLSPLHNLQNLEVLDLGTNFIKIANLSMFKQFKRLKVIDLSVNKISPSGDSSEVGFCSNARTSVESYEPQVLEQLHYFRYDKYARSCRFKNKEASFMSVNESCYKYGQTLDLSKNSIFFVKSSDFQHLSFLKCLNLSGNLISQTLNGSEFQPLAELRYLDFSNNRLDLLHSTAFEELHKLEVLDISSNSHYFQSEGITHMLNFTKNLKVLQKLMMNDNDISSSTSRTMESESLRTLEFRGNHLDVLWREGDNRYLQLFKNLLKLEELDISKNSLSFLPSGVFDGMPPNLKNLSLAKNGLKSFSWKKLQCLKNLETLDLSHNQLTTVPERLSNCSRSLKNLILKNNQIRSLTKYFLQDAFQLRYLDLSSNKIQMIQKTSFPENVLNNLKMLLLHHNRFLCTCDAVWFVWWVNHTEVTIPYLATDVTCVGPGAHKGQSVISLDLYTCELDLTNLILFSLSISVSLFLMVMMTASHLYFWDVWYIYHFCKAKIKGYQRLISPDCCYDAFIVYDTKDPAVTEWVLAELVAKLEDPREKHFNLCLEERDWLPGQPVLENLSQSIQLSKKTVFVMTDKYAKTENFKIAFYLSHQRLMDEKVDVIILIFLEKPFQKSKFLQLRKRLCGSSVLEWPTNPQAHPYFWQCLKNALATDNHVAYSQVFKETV
- Protocol: TLR7 inhibition reporter assay (HEK-Blue cells, SEAP reporter, gardiquimod stimulation)
- Format: cell-based
- Condition Summary: HEK-Blue cells overexpressing human TLR7, SEAP reporter, gardiquimod 7.5 μM
pIC50: −log10 of the molar value.

| Compound | Value Measured |
| --- | --- |
| Cc1cc(-c2[nH]c3ccc(C4CCNCC4)cc3c2C(C)C)cc2cnnn12 | > 7.00 |
| CNCCN1CCC(c2ccc3[nH]c(-c4ccc5nccn5c4)c(C(C)C)c3c2)CC1 | > 7.00 |
| CC(C)c1c(-c2cnc3ncnn3c2)[nH]c2ccc(C3CCN(CC(C)(C)O)CC3)cc12 | 6.00 to 7.00 |

What the record says about CNC(=O)CN1CCC(c2ccc3[nH]c(-c4cc(C)n5nncc5c4)c(C(C)C)c3c2)CC1 : pIC50 is > 7.00

What the record says about Cc1cc(-c2[nH]c3ccc(C4CCN(C(=O)CN5CCC(F)(F)CC5)CC4)cc3c2C(C)C)cn2nnnc12 : pIC50 is > 7.00

* * *

Measured IC50 by item
- System Name: human TLR9 (Homo sapiens)
- Protocol: TLR9 inhibition reporter assay (HEK-Blue cells, SEAP reporter, ODN2006 stimulation)
- Condition Summary: HEK-Blue cells overexpressing human TLR9, SEAP reporter, ODN2006 5 nM

As a guide, the following entries are already answered.
| Compound | System Name | Property Measured | Value Measured |
| --- | --- | --- | --- |
| Cc1c(-c2ncnn3cccc23)[nH]c2ccc(C3CCN(C4CCN(C(C)C)CC4)CC3)cc12 [Example 806] | human TLR9 (Homo sapiens) | IC50 | < 0.1 µM |
| CNC(=O)CN1CCC(c2ccc3[nH]c(-c4cc(C)n5ncnc5c4)c(C(C)C)c3c2)CC1 [Example 325] | human TLR9 (Homo sapiens) | IC50 | 1 to 50 µM |

The recorded IC50 with human TLR9 (Homo sapiens) for Cc1cc2cc(-c3[nH]c4ccc(C5CCN(C6COC6)CC5)cc4c3C(C)C)cc(CC(C)C)n2n1 [Example 716] was 1 to 50 µM

The recorded IC50 with human TLR9 (Homo sapiens) for CNC(=O)CN1CCC(c2ccc3[nH]c(-c4cc(OC)n5nc(C)nc5c4)c(C(C)C)c3c2)CC1 [Example 347] was 1 to 50 µM
